# ASSAYED_SYSTEM: Isoform 2 of Nuclear receptor ROR-alpha (Alpha-2) (Homo sapiens)
# Sequence (P35398 whole entry): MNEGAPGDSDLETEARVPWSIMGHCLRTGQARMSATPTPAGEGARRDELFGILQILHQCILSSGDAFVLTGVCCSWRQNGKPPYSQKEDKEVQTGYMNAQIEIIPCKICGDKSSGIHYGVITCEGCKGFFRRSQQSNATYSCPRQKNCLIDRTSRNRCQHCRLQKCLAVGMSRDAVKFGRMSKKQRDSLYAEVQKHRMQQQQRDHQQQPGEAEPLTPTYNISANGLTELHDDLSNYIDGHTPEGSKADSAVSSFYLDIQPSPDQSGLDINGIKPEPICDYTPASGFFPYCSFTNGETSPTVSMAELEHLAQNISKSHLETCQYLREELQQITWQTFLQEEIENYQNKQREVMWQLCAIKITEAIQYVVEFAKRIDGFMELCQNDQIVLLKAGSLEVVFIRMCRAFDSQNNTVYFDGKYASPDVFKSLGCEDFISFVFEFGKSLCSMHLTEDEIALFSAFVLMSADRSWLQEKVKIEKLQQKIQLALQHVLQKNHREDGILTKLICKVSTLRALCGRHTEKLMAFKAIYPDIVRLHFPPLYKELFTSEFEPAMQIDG
# METHOD: activators of RORA ligand-binding domain fusion – cell-based, CHO-K1, Gal4-RORA LBD, luciferase luminescence, counter-screen for SF-1 activator project, dose response (AID 675)
pEC50: −log10 of the molar value.
PROPERTY_MEASURED: pEC50

Below, 3 compounds whose answers are already recorded.
CC1(C)CC(=O)C(=CNc2ccc3[nH]ncc3c2)C(=O)C1 = 5.01
Cc1cnc(NC(=O)CSc2nnc(-c3ccccc3)o2)s1 = 5.38
CCOC(=O)N1CCN(S(=O)(=O)c2ccc(C(=O)Nc3sc4c(c3C#N)CCC4)cc2)CC1 = 6.20

A. Cc1cc(C(=O)Nc2sc3c(c2C#N)CCC(C(C)(C)C)C3)no1 (stereo not given)
B. COCC(C)NC(=O)c1noc2c1CCc1cc(OC)ccc1-2 (stereo not given)
Task item: Pick one: A or B . Which one has the lower reported pEC50? Label of pick, please.
Reply: A
